assay: yeast display, Sf9 membrane polyspecificity reagent, FACS + sequencing; frameworks hold sequencing errors

{"Seq text": "QVQLVESGGCLVQAGGSLRLSCAASGFTFSRYNMGWYRQAPGKESELVATISWSGSRTYYADSVKGRFTISRDNAKNTVYLQINSLKPDDTAFYYCNFAPHRQVFYTGQYDYWGQGTQVTVSS", "polyreactivity (PSR sort gate)": "high polyreactivity"}
{"Seq text": "QVQLVESGGGLVQAGGSLRLSCAASGITFNTYTMVWYTQAPGKERELVAAISGSSGRTYYADSVKGRFTISRDNAKNTVYLQMNSLNPEDTAVYYCAAYAVESYKYDYWGHGTQVTVSS", "polyreactivity (PSR sort gate)": "high polyreactivity"}
